Hey, just so you know, these numbers are from PubChem BioAssay.

# subject.of.test: E3 ubiquitin-protein ligase XIAP (Homo sapiens) (UniProt P98170)
# Sequence (P98170 whole entry, looked up): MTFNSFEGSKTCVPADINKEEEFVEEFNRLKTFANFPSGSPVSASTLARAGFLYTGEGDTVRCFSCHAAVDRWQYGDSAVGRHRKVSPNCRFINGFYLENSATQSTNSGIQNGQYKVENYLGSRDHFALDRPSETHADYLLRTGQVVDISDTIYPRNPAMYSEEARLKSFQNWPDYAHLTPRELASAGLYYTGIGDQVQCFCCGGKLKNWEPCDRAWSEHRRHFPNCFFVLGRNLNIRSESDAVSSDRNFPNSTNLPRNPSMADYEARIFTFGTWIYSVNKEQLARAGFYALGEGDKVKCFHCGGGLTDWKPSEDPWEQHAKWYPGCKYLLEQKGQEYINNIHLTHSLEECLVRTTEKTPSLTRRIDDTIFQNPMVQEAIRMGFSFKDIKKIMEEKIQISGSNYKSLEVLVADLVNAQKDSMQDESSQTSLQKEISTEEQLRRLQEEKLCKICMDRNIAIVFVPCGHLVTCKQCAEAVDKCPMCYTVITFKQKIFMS
# protocol: small molecules binding XIAP protein – biophysical, small-molecule microarray, fluorescence 635 nm, primary screen (AID 1181);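 further: score merges 667 nm emission and signal to noise over triplicate slides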
# experimental.parameters: higher = more signal
experimental.readout: composite z-score

Some entries whose results are on file:
Query: Short answer please: composite z-score, E3 ubiquitin-protein ligase XIAP (Homo sapiens) (UniProt P98170), entry COc1ccc([Si](C)(C)[C@H]2[C@H](CC(=O)N3Cc4ccccc4C[C@H]3CO)O[C@@]3(C(=O)N(Cc4cccc(I)c4)c4ccccc43)[C@@H]2C)cc1
Response: -0.157

Query: Check O=C1C2C=CC(C(O)C3CC=CCC3)N(n3cnnc3)C2C(=O)N1Cc1ccccc1 (centres undefined) too.
Response: 0.38

Query: Check C=C(/C(=C/C[C@@H](OC(C)=O)c1ccc(CO)o1)c1cnc2ccccc2c1)C(C)C too.
Response: 0.701

Query: Check O=C1O[C@@H](c2ccccc2)[C@@H](c2ccccc2)N2[C@@H](c3ccc(O)cc3)[C@]3(C(=O)Nc4ccc(C#CCCO)cc43)[C@@H](C(=O)O)[C@H]12 too.
Response: 0.511

Query: Check COCCOC(=O)N1C(=O)[C@@]2(c3cc(C#Cc4ccc(OC)cc4)ccc31)[C@H](C(N)=O)[C@H]1C(=O)O[C@H](c3ccccc3)[C@H](c3ccccc3)N1[C@@H]2c1ccc(O)cc1 too.
Response: 0.0849

Query: Check C[N+](C)(C)CCCC[C@@H]1NC(=O)[C@H]2C[C@@H](C(=O)O)[C@@H](c3cccc(OCCO)c3)N2C1=O too.
Response: 0.353

Query: Check Cc1ccc(S[C@]2(C(=O)NCC(C)C)CC(=O)N(Cc3ccccc3)[C@@H]2c2ccc(CO)cc2)cc1 too.
Response: 0.104

Query: Check O=C1C2C=CC(C(O)c3cccc4ccccc34)N(n3cnnc3)C2C(=O)N1Cc1ccccc1 (centres undefined) too.
Response: -0.0421

Query: Check CN(C)CCCC[C@@H]1NC(=O)[C@H]2C[C@@H](C(=O)NCCCCCNC(=O)CS)[C@@H](c3ccc(O)cc3)N2C1=O too.
Response: -0.0344

Query: Check [N-]=[N+]=Nc1ccccc1C[C@]1(C(=O)N2CCCCC2)N=C(c2ccc(OCCCO)cc2)O[C@H]1c1ccccc1N=[N+]=[N-] too.
Response: 0.0727

Continuing:
Query: Short answer please: composite z-score, E3 ubiquitin-protein ligase XIAP (Homo sapiens) (UniProt P98170), entry C=CCOC(=O)[C@H]1[C@@H]2C(=O)O[C@@H](c3ccccc3)[C@@H](c3ccccc3)N2[C@@H](c2ccc(OCCOC(=O)[C@@H]3C[C@@H]4C(=O)NCC(=O)N4[C@@H]3c3ccc(O)cc3)cc2)[C@]12C(=O)Nc1ccc(I)cc12
Response: -0.0066

Query: Check [N-]=[N+]=NCc1ccccc1C[C@]1(C(=O)NCCN2CCOCC2)N=C(c2ccc(OCCCO)cc2)O[C@H]1c1ccccc1CN=[N+]=[N-] too.
Response: 0.0871
